Assay: Cmax in squirrel monkey at 2 mg/kg
Assay type: ADME, organism-based
Parameters: dose 2 mg/kg
Details: saimiri, in vivo

molecule | Cmax / nM
CC(C)(c1cc(-c2cccc(CC(F)(c3ccc(S(C)(=O)=O)cc3)S(=O)(=O)C3CC3)c2)c2ncccc2c1)S(C)(=O)=O (single isomer, unassigned; Enantio B) | 1900

---

Measured log10 clearance of individual entries
Test: Clearance in iv dosed rat
Type: ADME, organism-based
Settings: in vivo
outcome_measure: log10 clearance (log10 of the value in mL/min/kg)

molecule | outcome_measure | result_value
COP(=O)(OC)C(Cc1cccc(-c2cc(C(C)(C)S(C)(=O)=O)cc3cccnc23)c1)c1ccc(S(C)(=O)=O)cc1 (stereo not drawn) | log10 clearance | 1.68
CC(C)(c1cc(-c2cccc(CC(F)(c3ccc(S(C)(=O)=O)cc3)C(O)(C3CC3)C3CC3)c2)c2ncccc2c1)S(C)(=O)=O.CCl (stereo not drawn) | log10 clearance | 0.90
COP(=O)(OC)C(F)(Cc1cccc(-c2cc(C(C)(C)S(C)(=O)=O)cc3cccnc23)c1)c1ccc(S(C)(=O)=O)cc1 (stereo not drawn) | log10 clearance | 2.25
CC(C)(c1cc(-c2cccc(CC(F)(c3ccc(S(C)(=O)=O)cc3)S(C)(=O)=O)c2)c2ncccc2c1)S(C)(=O)=O (stereo not drawn) | log10 clearance | 0.95
CC(C)(c1cc(-c2cccc(CC(F)(c3ccc(S(C)(=O)=O)cc3)S(=O)(=O)C3CC3)c2)c2ncccc2c1)S(C)(=O)=O.Cl (single isomer, unassigned) | log10 clearance | 0.95
CC(C)(O)C(F)(Cc1cccc(-c2cc(C(C)(C)S(C)(=O)=O)cc3cccnc23)c1)c1ccc(S(C)(=O)=O)cc1 (stereo not drawn) | log10 clearance | 1.23
CC(C)(c1cc(-c2cccc(CC(F)(c3ccc(S(C)(=O)=O)cc3)C(O)(C3CC3)C3CC3)c2)c2ncccc2c1)S(C)(=O)=O (single isomer, unassigned; Enantio B) | log10 clearance | 1.58
Cc1noc(/C(=C/c2cccc(-c3cc(C(C)(C)S(C)(=O)=O)cc4cccnc34)c2)c2ccc(S(C)(=O)=O)cc2)n1 | log10 clearance | 0.85
CC(C)(c1cc(-c2cccc(CC(c3ccc(S(C)(=O)=O)cc3)S(C)(=O)=O)c2)c2ncccc2c1)S(C)(=O)=O (stereo not drawn) | log10 clearance | 1.88
CC(C)(O)C(Cc1cccc(-c2cc(C(C)(C)S(C)(=O)=O)cc3cccnc23)c1)c1ccc(S(C)(=O)=O)cc1 (stereo not drawn) | log10 clearance | 1.70
CC(C)(c1cc(-c2cccc(CC(F)(c3ccc(S(C)(=O)=O)cc3)S(=O)(=O)C3CC3)c2)c2ncccc2c1)S(C)(=O)=O (single isomer, unassigned; Enantio B) | log10 clearance | 0.48
CC(C)(c1cc(-c2cccc(CC(CO)c3ccc(S(C)(=O)=O)cc3)c2)c2ncccc2c1)S(C)(=O)=O (stereo not drawn) | log10 clearance | 1.71
CC(C)(c1cc(-c2cccc(CC(F)(c3ccc(S(C)(=O)=O)cc3)C(O)(C3CC3)C3CC3)c2)c2ncccc2c1)S(C)(=O)=O.Cl (single isomer, unassigned) | log10 clearance | 1.04

---

Experiment: Bioavailability in […] rat
Assay type: ADME, organism-based
Settings: in vivo
Threshold check on bioavailability: at or above 50% gives True, strictly below gives False.

molecule | answer_label
CC(C)(c1cc(-c2cccc(CC(c3ccc(S(C)(=O)=O)cc3)S(C)(=O)=O)c2)c2ncccc2c1)S(C)(=O)=O (stereo not drawn) | False
CC(C)(O)C(Cc1cccc(-c2cc(C(C)(C)S(C)(=O)=O)cc3cccnc23)c1)c1ccc(S(C)(=O)=O)cc1 (stereo not drawn) | False
CC(C)(c1cc(-c2cccc(CC(CO)c3ccc(S(C)(=O)=O)cc3)c2)c2ncccc2c1)S(C)(=O)=O (stereo not drawn) | False
CC(C)(O)C(F)(Cc1cccc(-c2cc(C(C)(C)S(C)(=O)=O)cc3cccnc23)c1)c1ccc(S(C)(=O)=O)cc1 (stereo not drawn) | True
CC(C)(c1cc(-c2cccc(CC(F)(c3ccc(S(C)(=O)=O)cc3)S(C)(=O)=O)c2)c2ncccc2c1)S(C)(=O)=O (stereo not drawn) | True
Cc1noc(/C(=C/c2cccc(-c3cc(C(C)(C)S(C)(=O)=O)cc4cccnc34)c2)c2ccc(S(C)(=O)=O)cc2)n1 | True
COP(=O)(OC)C(Cc1cccc(-c2cc(C(C)(C)S(C)(=O)=O)cc3cccnc23)c1)c1ccc(S(C)(=O)=O)cc1 (stereo not drawn) | False
CC(C)(c1cc(-c2cccc(CC(F)(c3ccc(S(C)(=O)=O)cc3)C(O)(C3CC3)C3CC3)c2)c2ncccc2c1)S(C)(=O)=O.Cl (single isomer, unassigned) | True
CC(C)(c1cc(-c2cccc(CC(F)(c3ccc(S(C)(=O)=O)cc3)S(=O)(=O)C3CC3)c2)c2ncccc2c1)S(C)(=O)=O (single isomer, unassigned; Enantio B) | True
CC(C)(c1cc(-c2cccc(CC(F)(c3ccc(S(C)(=O)=O)cc3)C(O)(C3CC3)C3CC3)c2)c2ncccc2c1)S(C)(=O)=O.CCl (stereo not drawn) | True
CC(C)(c1cc(-c2cccc(CC(F)(c3ccc(S(C)(=O)=O)cc3)S(=O)(=O)C3CC3)c2)c2ncccc2c1)S(C)(=O)=O.Cl (single isomer, unassigned) | False
CC(C)(c1cc(-c2cccc(CC(F)(c3ccc(S(C)(=O)=O)cc3)C(O)(C3CC3)C3CC3)c2)c2ncccc2c1)S(C)(=O)=O (single isomer, unassigned; Enantio B) | True

Ref: ChEMBL document CHEMBL1155332
